Readings of protein stability index for the listed variants
B1: FBF1 (parent)
chain: FGDSPKAEKRQIGDQEGPRPARST

variants of: B1; assay: protein stability index of a GFP-peptide fusion (GPS, HEK-293T) (PSI 1-6); higher = more stable; details: c terminus: a fixed tail appended;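 also: lentivirally expressed fusions sorted by FACS into six bins by GFP to DsRed ratio, PSI derived from sequencing read proportions per bin multiplied by bin number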
The response must contain the number and no unit.

mutant.label	protein stability index
S4R	4.88

# input Tell me the measured protein stability index of P18V , please.
# output 4.96

# input Tell me the measured protein stability index of P5Y , please.
# output 4.86
